Biological target: human EP4 receptor (Homo sapiens (Human))
Sequence (P35408 whole entry): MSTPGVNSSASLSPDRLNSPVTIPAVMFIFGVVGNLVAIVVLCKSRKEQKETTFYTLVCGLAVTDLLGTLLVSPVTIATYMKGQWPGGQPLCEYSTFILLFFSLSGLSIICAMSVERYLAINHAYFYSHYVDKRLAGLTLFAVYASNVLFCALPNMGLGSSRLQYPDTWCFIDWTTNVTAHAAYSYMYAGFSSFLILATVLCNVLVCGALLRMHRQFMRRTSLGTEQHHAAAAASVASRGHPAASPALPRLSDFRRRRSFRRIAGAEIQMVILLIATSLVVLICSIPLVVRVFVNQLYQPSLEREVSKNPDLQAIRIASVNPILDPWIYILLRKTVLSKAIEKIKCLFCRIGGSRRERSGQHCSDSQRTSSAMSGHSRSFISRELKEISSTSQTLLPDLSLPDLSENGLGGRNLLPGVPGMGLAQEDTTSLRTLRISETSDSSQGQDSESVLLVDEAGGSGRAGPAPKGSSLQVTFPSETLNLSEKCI
Test: EP4 antagonistic activity measurement experiment using prostanoid receptor subtype expressing cells
Format: cell-based
Conditions: CHO cells expressing human EP4 receptor; inhibition of cAMP production by PGE2 10 nM; 30 minutes at room temperature
reported metric: pIC50
Please report pIC50 as the negative decimal logarithm of the molar concentration, giving only the number.

Exercise: Which pIC50 is listed for CNC(=O)c1ccc2c(C)cn(C(C)C(=O)Nc3cc(C(=O)c4cnn(C)c4)ccc3CCCC(=O)O)c2c1 (stereo not drawn) [Example 18-5(2)] ?
Solution: 8.49

Exercise: Which pIC50 is listed for COCCNC(=O)c1ccc2c(C)cn(C(C)C(=O)Nc3cc(F)ccc3CCCC(=O)O)c2c1 (single isomer, unassigned) [Example 11-30(2)] ?
Solution: 7.92

Exercise: Which pIC50 is listed for CNC(=O)c1ccc2c(C)cn(C(C)C(=O)Nc3cc(C#N)ccc3CCCC(=O)O)c2c1 (single isomer, unassigned) [Example 11-3(2)] ?
Solution: 8.57

Exercise: Which pIC50 is listed for CCNC(=O)c1ccc2c(C)cn([C@H](C)C(=O)Nc3cc(C#N)ccc3CCCC(=O)O)c2c1 [Example 11-1(2)] ?
Solution: 8.89

Exercise: Which pIC50 is listed for COCCNC(=O)c1ccc2c(C)cn(C(C)C(=O)Nc3cc(Cn4cnc(C(F)(F)F)n4)ccc3CCCC(=O)O)c2c1 (single isomer, unassigned) [Example 7-1(2)] ?
Solution: 8.48

Exercise: Which pIC50 is listed for Cc1cnn(Cc2ccc(CCCC(=O)O)c(NC(=O)C(C)n3cc(C)c4ccc(C(=O)N(C)C)cc43)c2)c1 (single isomer, unassigned) [Example 3-11(2)] ?
Solution: 8.34
